- subject of test: human chemokine receptor 2 isoform B (Homo sapiens)
- Sequence (P41597 1-360 isoform P41597-2): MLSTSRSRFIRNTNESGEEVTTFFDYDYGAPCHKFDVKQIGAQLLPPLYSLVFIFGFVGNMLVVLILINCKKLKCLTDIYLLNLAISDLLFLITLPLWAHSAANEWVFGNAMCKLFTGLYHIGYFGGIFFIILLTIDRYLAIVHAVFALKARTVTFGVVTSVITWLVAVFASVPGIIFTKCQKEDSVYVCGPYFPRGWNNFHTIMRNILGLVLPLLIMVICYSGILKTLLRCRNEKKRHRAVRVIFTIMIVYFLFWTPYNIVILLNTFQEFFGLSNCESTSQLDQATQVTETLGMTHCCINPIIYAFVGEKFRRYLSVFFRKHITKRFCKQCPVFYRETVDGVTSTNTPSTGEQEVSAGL
- assay details: Calcium mobilization assay (FLIPR, CHOK1-CCR2B-A5 cells, 20 nM MCP-1)
- experimental setup: Ca mobilisation assay, CCR2, antagonist activity vs 20 nM MCP-1
In this section we review reported log10(IC50) values for a set of molecules.
endpoint label: log10(IC50) (log10 of the value in nM)

# molecule, log10(IC50)
data = [
    ("COCC1CCCN(CC(O)CCN2CCN(C(=O)/C=C/c3ccc(Cl)c(Cl)c3)CCC2=O)C1 (racemic)", 2.35),
    ("COC(=O)NC1CCN(CCCCN2CCN(C(=O)/C=C/c3ccc(F)c(Cl)c3)CCC2=O)CC1", 1.96),
    ("O=C(/C=C/c1ccc(Cl)c(Cl)c1)N1CCC(=O)N(CCCN2CCN(C3CCCC3)CC2)CC1", 2.09),
    ("CC1(CO)CCCCN1CCCCN1CCN(C(=O)/C=C/c2ccc(F)c(Cl)c2)CCC1=O (racemic)", 2.42),
    ("O=C(/C=C/c1ccc(F)c(Cl)c1)N1CCC(=O)N(CCCCN2CC[C@H](O)[C@H](F)C2)CC1 (racemic)", 3.04),
    ("O=C(/C=C/c1ccc(Cl)c(Cl)c1)N1CCC(=O)N(CCCN2CCCC(CO)C2)CC1 (racemic)", 2.17),
    ("O=C(/C=C/c1ccc(Cl)c(Cl)c1)N1CCC(=O)N(CCCN2CCC(O)C2)CC1 (racemic)", 2.75),
    ("COC(=O)NC1CCN(CC(O)CCN2CCN(C(=O)/C=C/c3ccc(Cl)c(Cl)c3)CCC2=O)CC1 (racemic)", 2.73),
    ("O=C(/C=C/c1ccc(Cl)c(Cl)c1)N1CCC(=O)N(CCCCN2CCN(C3CC3)CC2)CC1", 2.67),
    ("N#CC1(c2ccccc2)CCN(CCN2CCN(C(=O)/C=C/c3ccc(Cl)c(Cl)c3)CCC2=O)CC1", 3.09),
]
